Molecular target: T1, TNFR2-His (Sino Biological, 10417-H08H, NP_001057.1 Met1-Asp257, with multi-histidine tag expressed on … (human, UniProt P20333 23-257))
T1 construct: range 1-257; Bought protein; also called recombinant human TNFR2 protein; TNFR2-His antigen; not shown: C-terminal multi-histidine tag
T1 sequence (looked up): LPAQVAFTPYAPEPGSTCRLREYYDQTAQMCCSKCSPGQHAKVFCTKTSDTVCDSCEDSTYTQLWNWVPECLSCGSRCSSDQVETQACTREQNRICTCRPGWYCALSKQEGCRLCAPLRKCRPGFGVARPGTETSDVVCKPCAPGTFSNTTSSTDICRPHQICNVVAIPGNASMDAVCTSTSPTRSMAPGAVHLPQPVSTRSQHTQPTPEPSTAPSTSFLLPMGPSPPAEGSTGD
Assay: BLI, antibody captured on AHC probe, TNFR2-His in solution
MEASURED_PROPERTY: Kd (nM)
Numbers only, in nM.

### Prompt Give the reported value of Kd for this record: 11G2huVH2 + huVL3(P07272) (antibody, V domains shown, Humanized 11G2) VH: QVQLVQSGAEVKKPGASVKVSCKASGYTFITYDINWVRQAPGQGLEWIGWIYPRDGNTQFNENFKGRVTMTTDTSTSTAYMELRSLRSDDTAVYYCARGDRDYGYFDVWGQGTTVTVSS VL: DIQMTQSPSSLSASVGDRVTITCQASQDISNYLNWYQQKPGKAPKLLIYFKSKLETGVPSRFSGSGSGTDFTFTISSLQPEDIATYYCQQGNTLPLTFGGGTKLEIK
### Response 10.6

Continuing:
### Prompt Give the reported value of Kd for this record: 11G2huVH4 + huVL2(P07269) (antibody, V domains shown, Humanized 11G2) VH: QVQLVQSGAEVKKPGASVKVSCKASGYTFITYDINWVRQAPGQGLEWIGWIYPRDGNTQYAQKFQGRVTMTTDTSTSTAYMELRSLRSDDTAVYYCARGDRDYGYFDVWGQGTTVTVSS VL: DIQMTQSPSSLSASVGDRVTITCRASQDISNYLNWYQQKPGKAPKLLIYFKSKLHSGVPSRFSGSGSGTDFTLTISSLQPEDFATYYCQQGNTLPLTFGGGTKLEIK
### Response 13.5
